tested on: Vero E6 infected with SARS-CoV-2; experiment: inhibition of SARS-CoV-2 cytopathic effect; higher = more antiviral protection, active = above 15; conditions: 10000 nM; 48 h
RECORDED ENDPOINT: inhibition of SARS-CoV-2 cytopathic effect (%)
Give the value, in units of %, as a plain number.

The recorded inhibition of SARS-CoV-2 cytopathic effect for entry Cc1cc(C(=O)O)sc1C(N)C(=O)O (stereo not drawn) equals -0.02

Noted for COc1ccc(OC)c(C(O)C(C)N)c1 (stereo not drawn) : its inhibition of SARS-CoV-2 cytopathic effect reads 0.66

For COc1ccc(-c2cc(=O)c3c(OC)c(OC)c(OC)c(OC)c3o2)cc1 the molecule record lists inhibition of SARS-CoV-2 cytopathic effect as -0.52
